Target: MMP-2 (Homo sapiens)
Sequence (P08253 110-660): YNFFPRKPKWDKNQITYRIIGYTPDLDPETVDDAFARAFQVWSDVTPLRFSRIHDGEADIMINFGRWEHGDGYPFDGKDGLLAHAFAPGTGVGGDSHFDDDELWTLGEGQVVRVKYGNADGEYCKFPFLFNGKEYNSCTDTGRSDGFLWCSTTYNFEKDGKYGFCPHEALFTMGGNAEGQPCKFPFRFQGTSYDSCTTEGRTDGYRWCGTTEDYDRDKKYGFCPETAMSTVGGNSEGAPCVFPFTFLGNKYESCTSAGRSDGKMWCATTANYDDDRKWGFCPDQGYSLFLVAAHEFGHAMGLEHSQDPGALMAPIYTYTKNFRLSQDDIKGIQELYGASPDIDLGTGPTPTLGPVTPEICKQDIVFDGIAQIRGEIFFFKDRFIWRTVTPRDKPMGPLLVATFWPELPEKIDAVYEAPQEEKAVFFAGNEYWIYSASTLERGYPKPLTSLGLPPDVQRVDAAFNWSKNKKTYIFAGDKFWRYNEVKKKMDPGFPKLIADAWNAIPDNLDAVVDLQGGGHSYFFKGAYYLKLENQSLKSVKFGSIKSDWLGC
measured_parameter: IC50 (nM)

These solved cases illustrate the format of a correct answer.
So, "Cc1cccc(-c2nc(-c3ccc(S(=O)(=O)N[C@H](Cc4ccccc4)C(=O)O)cc3)no2)c1" ? Its IC50 was 38

IC50 in this record for "COc1ccc(-c2nc(-c3ccc(S(=O)(=O)N[C@@H](Cc4ccccc4)C(=O)O)cc3)no2)cc1OC" : 506

Memo: "C[C@@H](NS(=O)(=O)c1ccc(-c2noc(-c3ccc([N+](=O)[O-])cc3)n2)cc1)C(=O)O" , reported IC50: 12.6

A: Cc1ccc(-c2nc(-c3ccc(S(=O)(=O)N[C@H](Cc4ccccc4)C(=O)O)cc3)no2)cc1
B: CC(C)[C@@H](NS(=O)(=O)c1ccc(-c2noc(-c3ccc(F)cc3)n2)cc1)C(=O)O
Which entry has a larger number for IC50, A or B ? Give the chosen item's label as your response. B
(B: 15.5 nM, A: 6.68 nM)

====

pIC50: −log10 of the molar value.
Measurement record for MMP-2 (Homo sapiens); quantity recorded: pIC50.
measured_parameter: pIC50

// known answers, use as guide
# lookup: Cc1ccc(-c2nc(-c3ccc(S(=O)(=O)N[C@H](C)C(=O)O)s3)no2)s1 [Compound B-10] on MMP-2 (Homo sapiens), pIC50 = 8.20

// molecule CCCc1ccc(-c2nc(-c3ccc(S(=O)(=O)NC(C(=O)O)C(C)C)cc3)no2)cc1 (stereo not shown) [Compound A-20] , assay MMP-2 (Homo sapiens), pIC50 value: 9.05

C[C@@H](NS(=O)(=O)c1ccc(-c2noc(-c3ccc(F)cc3)n2)s1)C(=O)O [Compound B-7] on MMP-2 (Homo sapiens) gives pIC50 = 7.40

Field pIC50 (system: MMP-2 (Homo sapiens)) for entry CN(C)c1ccc(-c2nc(-c3ccc(S(=O)(=O)N[C@H](Cc4ccccc4)C(=O)O)cc3)no2)cc1 [Compound A-8] = 7.92

Observed pIC50 on MMP-2 (Homo sapiens), entry CCc1ccc(-c2nc(-c3ccc(S(=O)(=O)N[C@H](Cc4c[nH]c5ccccc45)C(=O)O)cc3)no2)cc1 [Compound A-64] , equals 8.86

P: CC(=O)c1ccc(-c2nc(-c3ccc(S(=O)(=O)N[C@H](C)C(=O)O)cc3)no2)cc1 [Compound A-51]
Q: CCCCc1ccc(-c2nc(-c3ccc(S(=O)(=O)N[C@@H](C(=O)O)C(C)C)cc3)no2)cc1 [Compound A-4]
Could you tell me which of P and Q has the lower pIC50 reading? // return label of chosen record P

P: CC(C)[C@H](NS(=O)(=O)c1ccc(-c2noc(-c3cccs3)n2)cc1)C(=O)O [Compound A-23]
Q: O=C(O)CNS(=O)(=O)c1ccc(-c2noc(-c3cccs3)n2)cc1 [Compound A-62]
R: N#Cc1ccc(-c2nc(-c3ccc(S(=O)(=O)N[C@H](Cc4ccccc4)C(=O)O)cc3)no2)cc1 [Compound A-34]
S: C[C@@H](NS(=O)(=O)c1ccc(-c2noc(-c3ccc(F)cc3)n2)cc1)C(=O)O [Compound A-45]
T: CCc1ccc(-c2nc(-c3ccc(S(=O)(=O)N[C@H](C)C(=O)O)cc3)no2)cc1 [Compound A-47]
Exam item: list the entries in increasing order of pIC50. Return the labels ranked in the requested order, please. P, Q, S, R, T

A: Cc1ccc(-c2nc(-c3ccc(S(=O)(=O)N[C@@H](C)C(=O)O)cc3)no2)cc1 [Compound A-46]
B: O=C(O)CNS(=O)(=O)c1ccc(-c2noc(-c3ccc(F)cc3)n2)s1 [Compound B-14]
Returns the identifier with the smallest measured pIC50 among A and B . Reply with the label of the item you choose. A
(A: 6.34, B: 6.65)
